Assay system: HLA-A*02:01 (Homo sapiens, UniProt P04439, D140Y/D185E/D98H/E176V/E277Q/G131W/G231S/I119V/I121R/I166T/I218V/L300P/L318F/N151K/N90K/P208A/P217A/Q86G/Q94H/R138H/R169H/T345S)
Assay info: MHC binding assay: UV-ligand exchange with ELISA detection of β2m of stabilized MHC complexes
Measurement setup: binding to HLA-A*02:01
Measured property: Peptide exchange (MHC class I binding score, peptide exchange yield)

Look over these answered cases.
- Substance: "2 (VMFNFPDQATV; listed as Homo sapiens) [compound 2]"
  Assay result: "+++ (≥50 = +++)"
- Substance: "27 (SLDIITITV; listed as Homo sapiens) [compound 27]"
  Assay result: "++++ (≥75% = ++++)"
- Substance: "66 (YLNLISTSV; listed as Homo sapiens) [compound 66]"
  Assay result: "+++ (≥50 = +++)"
- Substance: "54 (HLFDIILTSV; listed as Homo sapiens) [compound 54]"
  Assay result: "++++ (≥75% = ++++)"
- Substance: "97 (ALLDGTVFEI; listed as Homo sapiens) [compound 97]"
  Assay result: "+++ (≥50 = +++)"

Your task in this section: give Peptide exchange (MHC class I binding score, peptide exchange yield) for each listed record.
1. 15 (SLLTAISEV; listed as Homo sapiens) [compound 15]
2. 47 (GLLEALLKI; listed as Homo sapiens) [compound 47]
3. 30 (KMLGLTVSL; listed as Homo sapiens) [compound 30]
4. 26 (KMLDEAVFQV; listed as Homo sapiens) [compound 26]
5. 13 (FLTAFLVQI; listed as Homo sapiens) [compound 13]
6. 61 (YQAPYFLTV; listed as Homo sapiens) [compound 61]

1. +++ (≥50 = +++)
2. +++ (≥50 = +++)
3. +++ (≥50 = +++)
4. ++++ (≥75% = ++++)
5. +++ (≥50 = +++)
6. +++ (≥50 = +++)

Provenance of the data: patent US10597433B2
